// data source = paper PMC9927415

target-desc: PAK6 (Homo sapiens, UniProt Q9NQU5)
Construct: purchased DiscoverX (KINOMEscan)
Sequence (Q9NQU5 whole entry): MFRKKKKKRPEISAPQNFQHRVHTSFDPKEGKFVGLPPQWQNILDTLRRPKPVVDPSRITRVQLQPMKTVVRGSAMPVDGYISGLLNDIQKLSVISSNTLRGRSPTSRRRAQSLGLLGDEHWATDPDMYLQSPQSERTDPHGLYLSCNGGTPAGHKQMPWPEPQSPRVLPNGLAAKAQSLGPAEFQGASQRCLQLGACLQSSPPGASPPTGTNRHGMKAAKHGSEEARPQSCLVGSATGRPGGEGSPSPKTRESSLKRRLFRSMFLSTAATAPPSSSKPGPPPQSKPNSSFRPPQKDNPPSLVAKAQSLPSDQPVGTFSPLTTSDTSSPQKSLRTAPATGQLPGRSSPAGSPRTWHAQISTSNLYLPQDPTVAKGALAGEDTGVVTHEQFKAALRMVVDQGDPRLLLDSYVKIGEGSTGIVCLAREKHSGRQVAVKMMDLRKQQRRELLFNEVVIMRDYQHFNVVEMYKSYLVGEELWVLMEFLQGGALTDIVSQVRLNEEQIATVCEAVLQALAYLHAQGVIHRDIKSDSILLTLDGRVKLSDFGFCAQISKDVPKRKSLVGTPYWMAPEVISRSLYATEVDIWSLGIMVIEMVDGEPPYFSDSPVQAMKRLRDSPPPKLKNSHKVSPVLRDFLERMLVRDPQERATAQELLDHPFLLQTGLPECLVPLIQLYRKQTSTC
protocol: KINOMEscan competitive binding
test-conditions: n=1, read-out: Percent inhibition, PAK6
# inhibition at 10 µM annotations
Give just the number in %; leave the unit off.

Below, each entry is followed by its recorded inhibition at 10 µM result.
[[record]]
molecule = "Nc1ncc2c(-c3ccncc3)c[nH]c2n1 [Compound 11]"
experimental_readout = "inhibition at 10 µM"
endpoint_value = 0

[[record]]
molecule = "COc1cc(Nc2nccc(-c3sc(N)nc3-c3cccc(NC(=O)c4c(F)cccc4F)c3)n2)cc(OC)c1OC [Compound 7]"
experimental_readout = "inhibition at 10 µM"
endpoint_value = 65

[[record]]
molecule = "Cc1ccc(O)cc1Nc1ccnc(Nc2cccc(C(N)=O)c2)n1 [Compound 3]"
experimental_readout = "inhibition at 10 µM"
endpoint_value = 0

[[record]]
molecule = "Clc1ccc(Nc2ncc(-c3ccccc3)s2)cc1 [Compound 10]"
experimental_readout = "inhibition at 10 µM"
endpoint_value = 0


# next molecule below
Fill in the blank: the reported inhibition at 10 µM of Fc1cccc(COc2ccc(Nc3ncnc4c3CN(CCN3CCOCC3)CC4)cc2Cl)c1 [Compound 6] is ____.
0
